Hey, just so you know, these numbers are from PubChem BioAssay AID2428.

molecular target: Muscarinic acetylcholine receptor M3 (Homo sapiens); experiment: human M3 receptor positive allosteric modulation, dose response, selectivity assay for M1 PAM project, cell-based, CHO-K1 hM3, Fluo-4 calcium, ACh EC20 (AID 2428); conditions: ACh EC20 potentiation; series mostly up to 30 µM
Entries with a potency or affinity are not part of this list. Calls of active or inactive are those of the source.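 How the source made its calls: active means compound whose fitted concentration response curve has an R squared above 0.5; inactive means the rest.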
outcomeMeasure: outcome

Some solved entries appear below for comparison.
Cc1cc(NC(=O)CS(=O)(=O)c2cn(Cc3cc(Br)ccc3F)c3ccccc23)no1    inactive
Cc1cc(NC(=O)CS(=O)(=O)c2cn(Cc3cccc(F)c3)c3ccccc23)no1    inactive
Cc1cc(NC(=O)CS(=O)(=O)c2cn(Cc3cccc(Cl)c3)c3ccccc23)no1    inactive
Cn1cc(-c2ccc(CN3C(=O)C(=O)c4ccccc43)c(F)c2)cn1    inactive

As a next step, examine the compound that follows.
### Prompt Tell me its outcome given `O=C1C(=O)N(Cc2ccc(Oc3ccccc3)cc2)c2ccc(OC(F)(F)F)cc21` as the entry.
### Response inactive
